- System: LOC_OS07G07230-cb001
- ASSAY_COMMENT: thermal shift delta Tm vs DMSO control; higher = stronger stabilization (binding);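 note: purified Escherichia coli-expressed rice kinase domain construct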
- TEST_CONDITIONS: 12.5 µM; protein concentration 2 µM
Decision: thermal shift delta Tm >= 0.6 °C yields satisfied, all other cases yield not satisfied.

MOLECULE: Cn1cc(C2=C(c3ccc(Cl)cc3Cl)C(=O)NC2=O)c2ccccc21
DISCRETE_LABEL: satisfied
//
MOLECULE: CCn1c2ccccc2c2cc(Nc3ccnc(NCCCN4CCOCC4)n3)ccc21
DISCRETE_LABEL: satisfied
//
MOLECULE: NC[C@@](O)(c1ccc(Cl)cc1)c1ccc(-c2cn[nH]c2)cc1
DISCRETE_LABEL: not satisfied
//
MOLECULE: C[C@@H]1COCCN1c1cc(C2([S@](C)(=N)=O)CC2)nc(-c2cc[nH]c3nccc2-3)n1
DISCRETE_LABEL: not satisfied
//
MOLECULE: COc1cc2ncnc(Nc3cccc(Cl)c3F)c2cc1OC(=O)N1CCN(C)C[C@H]1C
DISCRETE_LABEL: satisfied
//
MOLECULE: O=C1NC(=O)/C(=C/c2ccc(-c3ccc(F)cc3O)o2)S1
DISCRETE_LABEL: not satisfied
//
MOLECULE: Cc1c[nH]c(/C=C2\C(=O)Nc3ccccc32)c1CCC(=O)O
DISCRETE_LABEL: satisfied
//
MOLECULE: Cn1cc(-c2cnn3c(N)c(Br)c([C@@H]4CCCNC4)nc23)cn1
DISCRETE_LABEL: not satisfied
//
MOLECULE: CCC(=O)Nc1cccc(Oc2nc(Nc3ccc(N4CCN(C)CC4)cc3OC)ncc2Cl)c1
DISCRETE_LABEL: not satisfied
//
MOLECULE: Cc1nc(N)sc1-c1ccnc(Nc2ccc(N3CCOCC3)cc2)n1
DISCRETE_LABEL: not satisfied
//
MOLECULE: CC(C)=CC[C@@H](O)C1=CC(=O)c2c(O)ccc(O)c2C1=O [Shikonin]
DISCRETE_LABEL: not satisfied
//
MOLECULE: CS(=O)(=O)c1ccc(-c2cnc(N)c(C(=O)Nc3ccccc3)n2)cc1
DISCRETE_LABEL: satisfied
//
MOLECULE: COCCOc1cnc2ccn([C@H](C)c3nnc4c(F)cc(-c5cnn(C)c5)cn34)c(=O)c2c1
DISCRETE_LABEL: satisfied
//
MOLECULE: CC(C)Oc1ccc(-c2nn([C@@H](C)c3oc4ccc(F)cc4c(=O)c3-c3cccc(F)c3)c3ncnc(N)c23)cc1F
DISCRETE_LABEL: not satisfied
//
MOLECULE: CN(C)C/C=C/C(=O)Nc1cc2c(Nc3ccc(F)c(Cl)c3)ncnc2cc1O[C@H]1CCOC1 [Afatinib (BIBW2992) Dimaleate]
DISCRETE_LABEL: not satisfied
//
MOLECULE: COc1cc(F)c(F)c(Nc2ccc(I)cc2F)c1NS(=O)(=O)C1(C[C@H](O)CO)CC1 [Refametinib (RDEA119, Bay 86-9766)]
DISCRETE_LABEL: not satisfied
//
MOLECULE: C[C@@H](NC(=O)c1ncnc(N)c1Cl)c1ncc(C(=O)Nc2cc(C(F)(F)F)c(Cl)cn2)s1
DISCRETE_LABEL: not satisfied
//
MOLECULE: CCn1c(N)c(C(=O)NC)c(=O)c2ccc(C#CC(C)(O)COC)nc21 (centres undefined)
DISCRETE_LABEL: not satisfied

###

- Test system: LOC_OS01G14860-cb001
- ASSAY_COMMENT: thermal shift delta Tm vs DMSO control; higher = stronger stabilization (binding)
- TEST_CONDITIONS: 12.5 µM; protein concentration 2 µM

COMPOUND: CCOc1cn(-c2ccc(F)cc2C)nc1C(=O)Nc1ccc(Oc2ccnc3cc(OC)c(OC)cc23)c(F)c1
thermal shift delta Tm [°C]: 0.5
//
COMPOUND: COCCOc1ccc2c(c1)ncn2-c1ccc2cccc(N3CCC(N)CC3)c2n1
thermal shift delta Tm [°C]: 1.89
//
COMPOUND: CN1CCN(Cc2ccc(-c3cnc4[nH]cc(-c5ccc6[nH]ccc6c5)c4c3)cc2)CC1
thermal shift delta Tm [°C]: 4.87
//
COMPOUND: CN(C)C/C=C/C(=O)Nc1ccc(C(=O)Nc2cccc(Nc3ncc(Cl)c(-c4c[nH]c5ccccc45)n3)c2)cc1
thermal shift delta Tm [°C]: 7.28
//
COMPOUND: CC(C)Nc1cc(-c2c[nH]c(C(=O)N[C@H](CO)c3cccc(Cl)c3)c2)c(Cl)cn1
thermal shift delta Tm [°C]: 5.82
//
COMPOUND: COc1cc(N2CCC(N3CCN(C)CC3)CC2)ccc1Nc1ncnc(Nc2ccccc2S(=O)(=O)C(C)C)n1
thermal shift delta Tm [°C]: 0.33
//
COMPOUND: C[C@@H](Oc1cc(-n2cnc3ccc(CN4CCN(C)CC4)cc32)sc1C(N)=O)c1ccccc1C(F)(F)F
thermal shift delta Tm [°C]: 0.12
//
COMPOUND: O=C1Nc2ccc(I)cc2/C1=C/c1cc(Br)c(O)c(Br)c1
thermal shift delta Tm [°C]: 5.73
//
COMPOUND: O=c1sn(-c2cccc3ccccc23)c(=O)n1Cc1ccccc1 [Tideglusib]
thermal shift delta Tm [°C]: 0.15

###

- Test system: LOC_OS02G45750-cb003
- ASSAY_COMMENT: thermal shift delta Tm vs DMSO control; higher = stronger stabilization (binding)
- TEST_CONDITIONS: 12.5 µM; protein concentration 2 µM
OBSERVED_PROPERTY: thermal shift delta Tm (°C)

COMPOUND: CCCS(=O)(=O)Nc1ccc(F)c(C(=O)c2c[nH]c3ncc(Cl)cc23)c1F
MEASUREMENT_TARGET: LOC_OS02G45750-cb003
MEASURED: 1.97
//
COMPOUND: CCNc1nc(Nc2cc(F)c(C(=O)N3CCOCC3)cc2OC)ncc1C(F)(F)F
MEASUREMENT_TARGET: LOC_OS02G45750-cb003
MEASURED: 1.06
//
COMPOUND: O=C(Nc1ccc(-c2ccnc(Nc3ccc(N4CCOCC4)cc3)n2)cc1)C1CCCN1 (stereo not given)
MEASUREMENT_TARGET: LOC_OS02G45750-cb003
MEASURED: 0.77
//
COMPOUND: COc1ccc(Cl)cc1NC(=O)Nc1cc(C)nc2ccccc12
MEASUREMENT_TARGET: LOC_OS02G45750-cb003
MEASURED: 0.37
//
COMPOUND: FC(F)(F)c1ccc(Nc2nc3ccc(Oc4ccnc(-c5ncc(C(F)(F)F)[nH]5)c4)cc3[nH]2)cc1 [Raf265 derivative]
MEASUREMENT_TARGET: LOC_OS02G45750-cb003
MEASURED: 1.97

###

- Test system: LOC_OS04G35114-cb001
- ASSAY_COMMENT: thermal shift delta Tm vs DMSO control; higher = stronger stabilization (binding)
- TEST_CONDITIONS: 12.5 µM; protein concentration 2 µM
This section presents compounds with their documented thermal shift delta Tm values.

COMPOUND: CC(=O)O/N=C1/C(c2c(O)[nH]c3cc(Br)ccc23)=Nc2ccccc21
thermal shift delta Tm (°C): 5.86
//
COMPOUND: CCc1cncnc1N1CCN(Cc2nc3ccc(C(F)(F)F)cc3[nH]2)CC1
thermal shift delta Tm (°C): 0.25
//
COMPOUND: CCCCCCCCCCCCCCCCCCOP(=O)([O-])OC1CC[N+](C)(C)CC1
thermal shift delta Tm (°C): -3.56
//
COMPOUND: CCCCNc1ncc(C(=O)NCc2ccc(-n3ccnc3)cc2)c(NC2CCC(O)CC2)n1 (centres undefined)
thermal shift delta Tm (°C): 9.02
//
COMPOUND: Cc1nc(NC(=O)N2CCC[C@H]2C(N)=O)sc1-c1ccnc(C(C)(C)C(F)(F)F)c1
thermal shift delta Tm (°C): 1.56
//
COMPOUND: C#Cc1cccc(Nc2ncnc3cc(OC)c(OCCCCCCC(=O)NO)cc23)c1
thermal shift delta Tm (°C): 5.97
//
COMPOUND: CCc1cnn2c(NCc3ccc[n+]([O-])c3)cc(N3CCCC[C@H]3CCO)nc12
thermal shift delta Tm (°C): 0.57
//
COMPOUND: C[C@@H]1COCCN1c1cc(=O)n2c(n1)N(Cc1cncc(Cl)c1)[C@H](C(F)(F)F)CC2
thermal shift delta Tm (°C): 0.41
//
COMPOUND: N#Cc1c(O)c2c(-c3ccc(-c4ccccc4O)cc3)csc2[nH]c1=O
thermal shift delta Tm (°C): 0.58

###

- System: LOC_OS01G70970-cb002
- ASSAY_COMMENT: thermal shift delta Tm vs DMSO control; higher = stronger stabilization (binding)
- TEST_CONDITIONS: 12.5 µM; protein concentration 2 µM
Consider the following partition of reported thermal shift delta Tm into named classes: A (below 0.3 °C), B (0.3 °C to below 4 °C), C (4 °C or more)

MOLECULE: Cc1cc(Nc2cc(N3CCN(C)CC3)nc(/C=C/c3ccccc3)n2)n[nH]1 [ENMD-2076 L-(+)-Tartaric acid]
DISCRETE_LABEL: B
--
MOLECULE: CN1C(=O)[C@@H](NC(=O)c2n[nH]c(Cc3ccccc3)n2)COc2ccccc21
DISCRETE_LABEL: B
--
MOLECULE: CNS(=O)(=O)Nc1nccc(Cc2c(C)c3ccc(Oc4ncccn4)cc3oc2=O)c1F
DISCRETE_LABEL: A
--
MOLECULE: O=C1NCCc2[nH]c(-c3ccncc3)cc21
DISCRETE_LABEL: B
--
MOLECULE: COCCNCc1ccc(-c2cc3nccc(Oc4ccc(NC(=O)C5(C(=O)Nc6ccc(F)cc6)CC5)cc4F)c3s2)nc1 [Sitravatinib (MGCD516)]
DISCRETE_LABEL: C
--
MOLECULE: COc1cc2c(N3CCN(C(=O)Nc4ccc(OC(C)C)cc4)CC3)ncnc2cc1OCCCN1CCCCC1 [Tandutinib (MLN518)]
DISCRETE_LABEL: A
--
MOLECULE: COCCOc1ccc2c(c1)ncn2-c1ccc2cccc(N3CCC(N)CC3)c2n1
DISCRETE_LABEL: C
--
MOLECULE: Nc1cccc(S(=O)(=O)N2CCCN(S(=O)(=O)c3ccc4c(c3)OCCO4)CC2)c1
DISCRETE_LABEL: A
--
MOLECULE: CNC(=O)c1cc(Oc2ccc(NC(=O)Nc3cc(C(C)(C)C)nn3-c3ccc4ncccc4c3)c(F)c2)ccn1 [Rebastinib (DCC-2036)]
DISCRETE_LABEL: B
--
MOLECULE: CC1Oc2cc(cnc2N)-c2c(nn(C)c2C#N)CN(C)C(=O)c2ccc(F)cc21 (configuration not stated)
DISCRETE_LABEL: B
--
MOLECULE: Cc1ccc(C(=O)Nc2ccc(CN3CCN(C)CC3)c(C(F)(F)F)c2)cc1C#Cc1cnc2[nH]ncc2c1 [GZD824 Dimesylate]
DISCRETE_LABEL: C
--
MOLECULE: CC1=C(C(=O)Nc2ccc3[nH]ncc3c2)C(c2ccc(F)cc2)NC(=O)N1 (configuration not stated)
DISCRETE_LABEL: B
--
MOLECULE: C=CC(=O)Nc1cccc(C)c1Nc1ncc2cc(-c3c(Cl)c(OC)cc(OC)c3Cl)ccc2n1
DISCRETE_LABEL: B
--
MOLECULE: Cn1cc(/C=C2\C(=O)Nc3cccnc32)c2ccccc21
DISCRETE_LABEL: C
--
MOLECULE: COc1ncc(-c2cc(-c3ncc(CN4C[C@@H](C)O[C@@H](C)C4)o3)c3cn[nH]c3c2)cc1NS(C)(=O)=O
DISCRETE_LABEL: A
--
MOLECULE: C[C@@]1(C(=O)Nc2ccc(F)nc2)CCCN1c1nc(Nc2cc(C3CC3)n[nH]2)c2cccn2n1
DISCRETE_LABEL: B
